Provenance of the data: ChEMBL document CHEMBL5236651

Provide the recorded MIC for the entries that follow.
Test system: Staphylococcus epidermidis
EXPERIMENT SUMMARY: Antibacterial activity against methicillin-sensitive Staphylococcus epidermidis 16-4 assessed as inhibition of bacterial growth by CLSI based micro broth double dilution method
Type: functional
Enter your answer as a number in µg/mL; do not include the unit.

input: MIC for `CC[C@H]1OC(=O)[C@@](C)(F)C(=O)[C@H](C)[C@@H](O[C@@H]2O[C@H](C)C[C@H](N(C)C)[C@H]2O)[C@@](C)(OC)C[C@@H](C)C(=O)[C@H](C)[C@H]2N(CCCN(C(=O)/C=C/c3ccccc3)c3cnc4ccccc4c3)C(=O)O[C@]12C` ?
output: 2

input: Entry to check: `CC[C@H]1OC(=O)[C@@](C)(F)C(=O)[C@H](C)[C@@H](O[C@@H]2O[C@H](C)C[C@H](N(C)C)[C@H]2O)[C@@](C)(OC)C[C@@H](C)C(=O)[C@H](C)[C@H]2N(CCCN(C(C)=O)c3cnc4ccccc4c3)C(=O)O[C@]12C`
output: 1

input: Could you do the same for `CCCCN(CCCN1C(=O)O[C@]2(C)[C@@H](CC)OC(=O)[C@@](C)(F)C(=O)[C@H](C)[C@@H](O[C@@H]3O[C@H](C)C[C@H](N(C)C)[C@H]3O)[C@@](C)(OC)C[C@@H](C)C(=O)[C@H](C)[C@@H]12)c1ccnc2ccccc12` , please?
output: 0.25

input: Try CC[C@H]1OC(=O)[C@H](C)[C@@H](O[C@H]2C[C@@](C)(OC)[C@@H](O)[C@H](C)O2)[C@H](C)[C@@H](O[C@@H]2O[C@H](C)C[C@H](N(C)C)[C@H]2O)[C@](C)(OC)C[C@@H](C)C(=O)[C@H](C)[C@@H](O)[C@]1(C)O [CLARITHROMYCIN] next.
output: 64

input: Next record, please: `CC[C@H]1OC(=O)[C@@](C)(F)C(=O)[C@H](C)[C@@H](O[C@@H]2O[C@H](C)C[C@H](N(C)C)[C@H]2O)[C@@](C)(OC)C[C@@H](C)C(=O)[C@H](C)[C@H]2N(CCCN(C(=O)/C=C/c3ccccc3)c3ccnc4ccccc34)C(=O)O[C@]12C`
output: 1

input: And what about the compound `CC[C@H]1OC(=O)[C@@](C)(F)C(=O)[C@H](C)[C@@H](O[C@@H]2O[C@H](C)C[C@H](N(C)C)[C@H]2O)[C@@](C)(OC)C[C@@H](C)C(=O)[C@H](C)[C@H]2N(CCCN(Cc3ccccc3)c3cnc4ccccc4c3)C(=O)O[C@]12C` ?
output: 1

input: Similarly, `CC[C@H]1OC(=O)[C@@](C)(F)C(=O)[C@H](C)[C@@H](O[C@@H]2O[C@H](C)C[C@H](N(C)C)[C@H]2O)[C@@](C)(OC)C[C@@H](C)C(=O)[C@H](C)[C@H]2N(CCCN(C)c3ccnc4ccccc34)C(=O)O[C@]12C` ?
output: 2

input: Here is the next compound: CC[C@H]1OC(=O)[C@H](C)C(=O)[C@H](C)[C@@H](O[C@@H]2O[C@H](C)C[C@H](N(C)C)[C@H]2O)[C@](C)(OC)C[C@@H](C)C(=O)[C@H](C)[C@H]2N(CCCCn3cnc(-c4cccnc4)c3)C(=O)O[C@]12C [TELITHROMYCIN]
output: 1

input: Ok, now `CC[C@H]1OC(=O)[C@@](C)(F)C(=O)[C@H](C)[C@@H](O[C@@H]2O[C@H](C)C[C@H](N(C)C)[C@H]2O)[C@@](C)(OC)C[C@@H](C)C(=O)[C@H](C)[C@H]2N(CCCn3ccc(=O)c4ccccc43)C(=O)O[C@]12C`
output: 0.25
